# pKi per entry
Molecular target: human NTCP (Homo sapiens, UniProt Q14973)
Sequence (Q14973 1-349): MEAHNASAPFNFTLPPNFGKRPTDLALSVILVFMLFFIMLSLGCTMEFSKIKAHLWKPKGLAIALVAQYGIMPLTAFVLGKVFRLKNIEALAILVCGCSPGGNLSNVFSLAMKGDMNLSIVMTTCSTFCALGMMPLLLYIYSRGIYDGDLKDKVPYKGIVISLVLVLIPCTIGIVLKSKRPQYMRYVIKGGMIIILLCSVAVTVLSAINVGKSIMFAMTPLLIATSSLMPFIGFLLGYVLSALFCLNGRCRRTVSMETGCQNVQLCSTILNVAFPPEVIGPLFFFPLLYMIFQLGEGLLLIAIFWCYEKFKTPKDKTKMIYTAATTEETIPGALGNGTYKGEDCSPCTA
Experiment: Inhibition of tauro-nor-THCA-24-DBD uptake in NTCP-transfected CHO cells
Format: cell-based
Set-up: expressed in transfected cells; host or cells: CHO cells, geneticin selection, expression induced with sodium butyrate
Conditions: 3 µM tauro-nor-THCA-24-DBD; Cheng-Prusoff from IC50; screening hits; read-out: Ki
Counter-ions that a name gives are not always drawn.
pKi is defined as minus the log10 of a concentration measured in mol/L.

Here are 10 molecules together with their reported answers.
CC/C(=C(/CC)c1ccc(O)cc1)c1ccc(O)cc1: 5.80
O=C(Nc1ccc([N+](=O)[O-])cc1Cl)c1cc(Cl)ccc1O [Niclosamide]: 7.10
COc1cc2c(cc1OC)[C@@H]1C(=O)c3ccc4c(c3O[C@@H]1CO2)C[C@H](C(C)C)O4 [Dihydrorotenone]: 5.95
O=C(OC[C@H]1O[C@@H](OC(=O)c2cc(O)c(O)c(OC(=O)c3cc(O)c(O)c(O)c3)c2)[C@H](OC(=O)c2cc(O)c(O)c(OC(=O)c3cc(O)c(O)c(O)c3)c2)[C@@H](OC(=O)c2cc(O)c(O)c(OC(=O)c3cc(O)c(O)c(O)c3)c2)[C@@H]1OC(=O)c1cc(O)c(O)c(OC(=O)c2cc(O)c(O)c(O)c2)c1)c1cc(O)c(O)c(OC(=O)c2cc(O)c(O)c(O)c2)c1: 6.46
CCC(=O)O[C@H]1[C@H](O[C@@H]2[C@@H](C)[C@H](O[C@H]3C[C@@](C)(OC)[C@@H](O)[C@H](C)O3)[C@@H](C)C(=O)O[C@H](CC)[C@@](C)(O)[C@H](O)[C@@H](C)C(=O)[C@H](C)C[C@@]2(C)O)O[C@H](C)C[C@@H]1N(C)C [Erythromycin estolate]: 6.28
COc1ccc(-c2c(OC)c3c(OC)c4c(cc3oc2=O)OC(C)(C)C=C4)cc1: 4.98
O=C(O)c1cc([N+](=O)[O-])ccc1NCCCc1ccccc1: 6.09
COC(=O)C1=C(C)NC(C)=C(C(=O)OCCN(C)Cc2ccccc2)C1c1cccc([N+](=O)[O-])c1 (stereo not drawn) [Nicardipine hydrochloride]: 5.45
COc1cc2c(cc1OC)[C@@H]1C(=O)c3ccc4c(c3O[C@@H]1CO2)C=CC(C)(C)O4 [(-)-Deguelin]: 5.78
O=C(O)c1ccccc1Nc1cccc(C(F)(F)F)c1: 5.12

# value lookup — system human NTCP (Homo sapiens, UniProt Q14973), readout pKi, item COC(=O)[C@H]1[C@H]2C[C@H]3c4[nH]c5ccccc5c4CCN3C[C@H]2CC[C@@H]1O [Rauwolscine hydrochloride]
4.41

Try this molecule next: "CC(=O)O.Cc1cc2c(C(C)C)c(O)c(O)c(C=O)c2c(O)c1-c1c(C)cc2c(C(C)C)c(O)c(O)c(C=O)c2c1O"
5.51
